Reference source for all entries: patent US20250195513A1

Recorded measurements of DC50, one per entry
Biological target: IRAK4 (Homo sapiens, UniProt Q9NWZ3)
Construct: endogenous in cells; host or cells: Karpas299
Test: IRAK4 Degradation Assay (Karpas299, HTRF/TR-FRET)
Assay type: cell-based
Conditions: Karpas-299 cells, 24 h treatment; read-out: IRAK4 in Karpas-299 (24 h) DC50
Supply the numeric figure in nM, leaving out any unit text.

Some solved entries appear below for comparison.
{"columns": ["Smiles structure", "Units label", "DC50"],
 "data": [
  ["CC(C)(O)c1cc2nn([C@H]3CC[C@H](N4CCN(CCc5cc(F)c([C@H]6CCC(=O)NC6=O)c(F)c5)CC4)CC3)cc2cc1NC(=O)c1ccc2cc(C#N)cnn12", "nM", 0.3],
  ["CC(C)(O)c1cc2nn([C@H]3CC[C@H](N4CCN(CC5CN(c6cc(F)c(N7CCC(=O)NC7=O)c(F)c6)C5)CC4)CC3)cc2cc1NC(=O)c1ccc2cc(C#N)cnn12", "nM", 3.9],
  ["C[C@@H]1CN(C(=O)C2CN(c3cc(F)c(N4CCC(=O)NC4=O)c(F)c3)C2)CCN1[C@H]1CC[C@H](n2cc3cc(NC(=O)c4ccc5cc(C#N)cnn45)c(C(C)(C)O)cc3n2)CC1", "nM", 0.4]
]}

Read the next record carefully.
## Input Report DC50, nothing else, for this molecule: O=C1CC[C@H](c2c(F)cc(N3CC[C@@H](C(=O)N4CCN([C@H]5CC[C@H](n6cc(NC(=O)c7coc(-c8ccnc(NCC(F)(F)F)c8)n7)c(C(F)F)n6)CC5)CC4)C3)cc2F)C(=O)N1
## Output 2.2

* * *

Target: IRAK4 (Homo sapiens, UniProt Q9NWZ3)
Construct: endogenous in cells; host or cells: Karpas299
Assay: IRAK4 Degradation Assay (Karpas299, HTRF/TR-FRET)
Assay type: cell-based
Conditions: Karpas-299 cells, 5 h treatment; read-out: IRAK4 in Karpas-299 (5 h) DC50
Recorded measurements of DC50, one per entry
Supply the numeric figure in nM, leaving out any unit text.

Some solved entries appear below for comparison.
{"columns": ["Compound", "Tgt", "DC50 [nM]"],
 "data": [
  ["CC(C)(O)c1cc2nn([C@H]3CC[C@H](N4CCN(CCNc5cc(F)c([C@H]6CCC(=O)NC6=O)c(F)c5)CC4)CC3)cc2cc1NC(=O)c1ccc2cc(C#N)cnn12 [Example 194]", "IRAK4 (Homo sapiens, UniProt Q9NWZ3)", 1.6],
  ["O=C1CCN(c2c(F)cc(N3CC(C(=O)N4CCN([C@H]5CC[C@H](n6cc(NC(=O)c7cnn(-c8ccnc(NCC9CC9)c8)n7)c(C(F)F)n6)CC5)CC4)C3)cc2F)C(=O)N1 [Example 61]", "IRAK4 (Homo sapiens, UniProt Q9NWZ3)", 24],
  ["CC(C)(O)c1cc2nn([C@H]3CC[C@H](N4CCN(C(=O)C5CN(c6ccc(C7CCC(=O)NC7=O)nc6)C5)CC4)CC3)cc2cc1NC(=O)c1ccc2cc(C#N)cnn12 (stereo partly shown) [Example 255]", "IRAK4 (Homo sapiens, UniProt Q9NWZ3)", 2.7]
]}

Read the next record carefully.
## Input System IRAK4 (Homo sapiens, UniProt Q9NWZ3). Read-out DC50. Item CC(C)(O)c1cc2nn([C@H]3CC[C@H](N4CCN(C5CCN(c6ccc(C7CCC(=O)NC7=O)cc6)CC5)CC4)CC3)cc2cc1NC(=O)c1ccc2cc(C#N)cnn12 (stereo partly shown) [Example 195] . Report value.
## Output 13

* * *

Biological target: IRAK4 (Homo sapiens)
Construct: endogenous in cells; host or cells: Karpas299
Sequence (Q9NWZ3 1-460): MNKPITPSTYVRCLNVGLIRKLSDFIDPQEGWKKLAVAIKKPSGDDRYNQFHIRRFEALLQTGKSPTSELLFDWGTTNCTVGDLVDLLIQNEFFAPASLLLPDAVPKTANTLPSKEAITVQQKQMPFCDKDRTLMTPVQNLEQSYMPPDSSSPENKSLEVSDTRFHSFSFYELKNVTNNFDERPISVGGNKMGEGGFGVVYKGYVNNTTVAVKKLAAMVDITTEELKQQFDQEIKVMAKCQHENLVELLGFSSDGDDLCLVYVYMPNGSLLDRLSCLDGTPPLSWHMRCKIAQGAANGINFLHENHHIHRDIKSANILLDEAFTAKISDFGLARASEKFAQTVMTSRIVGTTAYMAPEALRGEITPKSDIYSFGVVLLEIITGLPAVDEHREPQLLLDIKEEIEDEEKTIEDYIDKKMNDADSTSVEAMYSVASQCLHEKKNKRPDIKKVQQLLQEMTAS
Experiment: IRAK4 Degradation Assay (Karpas299, HTRF/TR-FRET)
Assay type: cell-based
Settings: Degradation (Karpas-299), comparison table, Linker Type A; read-out: Compound (Linker Type A) Dmax (%)
Recorded measurements of Dmax, one per entry
Supply the numeric figure in %, leaving out any unit text.

Some solved entries appear below for comparison.
{"columns": ["Smiles structure", "Units label", "Recorded measurement"],
 "data": [
  ["O=C1CCN(c2ccc(N3CCC(N4CCN(C[C@H]5CC[C@H](n6cc(NC(=O)c7coc(-c8ccnc(NCC(F)(F)F)c8)n7)c(C(F)F)n6)CC5)CC4)CC3)cc2)C(=O)N1", "%", 6.5],
  ["O=C1CCN(c2ccc(N3CC(N4CCN(C[C@H]5CC[C@H](n6cc(NC(=O)c7coc(-c8ccnc(NCC(F)(F)F)c8)n7)c(C(F)F)n6)CC5)CC4)C3)cc2)C(=O)N1", "%", 9],
  ["COc1cc2nn([C@H]3CC[C@H](CN4CCN(C(=O)C5CCN(c6ccc(N7CCC(=O)NC7=O)cc6)CC5)CC4)CC3)cc2cc1NC(=O)c1cccc(C(F)(F)F)n1", "%", 66]
]}

Read the next record carefully.
## Input Report Dmax, nothing else, for this compound: O=C1CC[C@H](c2c(F)cc(N3CC(C(=O)N4CCN(C[C@H]5CC[C@H](n6cc(NC(=O)c7coc(-c8ccnc(NCC(F)(F)F)c8)n7)c(C(F)F)n6)CC5)CC4)C3)cc2F)C(=O)N1
## Output 95

* * *

Molecular target: IRAK4 (Homo sapiens)
Construct: endogenous in cells; host or cells: Karpas299
Sequence (Q9NWZ3 1-460): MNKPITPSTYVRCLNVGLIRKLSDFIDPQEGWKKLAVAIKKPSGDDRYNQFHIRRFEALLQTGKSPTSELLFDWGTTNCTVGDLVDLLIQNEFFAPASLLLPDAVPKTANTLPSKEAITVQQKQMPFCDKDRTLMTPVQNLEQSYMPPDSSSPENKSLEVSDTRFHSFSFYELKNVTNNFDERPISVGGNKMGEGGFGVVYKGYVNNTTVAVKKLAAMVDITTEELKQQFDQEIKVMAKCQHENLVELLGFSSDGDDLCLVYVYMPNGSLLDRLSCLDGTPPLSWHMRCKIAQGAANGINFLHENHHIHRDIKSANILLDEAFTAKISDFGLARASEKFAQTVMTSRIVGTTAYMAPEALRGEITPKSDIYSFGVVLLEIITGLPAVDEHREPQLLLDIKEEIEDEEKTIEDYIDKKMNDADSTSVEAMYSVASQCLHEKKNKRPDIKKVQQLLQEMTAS
Test: IRAK4 Degradation Assay (Karpas299, HTRF/TR-FRET)
Format: cell-based
Conditions: Karpas-299 cells, 24 h treatment; maximum percentage of degradation; read-out: IRAK4 in Karpas-299 (24 h) Dmax (%)
Reported endpoint: Dmax (%)
Supply the numeric figure in %, leaving out any unit text.

Some solved entries appear below for comparison.
{"columns": ["Compound", "Units label", "Dmax"],
 "data": [
  ["CC(C)(O)c1cc2nn([C@H]3CC[C@H](N4C[C@@H]5CN(CC6CN(c7cc(F)c(C8CCC(=O)NC8=O)c(F)c7)C6)C[C@H]5C4)CC3)cc2cc1NC(=O)c1ccc2cc(C#N)cnn12 (some centres unmarked) [Example 359]", "%", 97],
  ["CC(C)(O)c1cc2nn([C@H]3CC[C@H](N4CCN(C(=O)C5CN(c6cc(F)c([C@H]7CCC(=O)NC7=O)c(F)c6)C5)CC4)CC3)cc2cc1NC(=O)c1cccn(C2CC2)c1=O [Example 102]", "%", 94],
  ["O=C1CC[C@H](c2c(F)cc(N3CC(C(=O)N4CCN([C@H]5CC[C@H](n6cc7cc(NC(=O)c8cccc(C(F)(F)F)n8)c(OC8COC8)nc7n6)CC5)CC4)C3)cc2F)C(=O)N1 [Example 98]", "%", 99]
]}

Read the next record carefully.
## Input System IRAK4 (Homo sapiens). Read-out Dmax. Item COc1cc2nn([C@H]3CC[C@H](N4CCN(C(=O)C5CN(c6ccc(N7CCC(=O)NC7=O)cc6)C5)CC4)CC3)cc2cc1NC(=O)c1cccc(C(F)(F)F)n1 [Example 37] . Report value.
## Output 96
